target: UPR counterscreen luciferase reporter, luminescence; assay: luciferase reporter activation, UPR counterscreen line – cell-based, luminescence, counter-screen for adaptive UPR activator project, dose response (AID 489027)
The source made the active and inactive calls. The rule behind the calls is not given here.
Return exactly one item of active, inactive

Problem: Returns: the outcome recorded for `COc1cc([C@H]2c3[nH]c4ccccc4c3C[C@H]3C(=O)N4[C@@H](c5cc(OC)c(OC)c(OC)c5)c5[nH]c6ccccc6c5C[C@H]4C(=O)N23)cc(OC)c1OC` in this assay.
Result: active

Problem: What outcome does the record of this test show for `NS(=O)(=O)c1ccc(NC(=O)COC(=O)c2cn(-c3ccccc3)nc2-c2ccc(F)cc2)cc1` ?
Result: inactive

Problem: Returns: the outcome recorded for `Cc1ccc(Cn2c(SCC(=O)Nc3cc(C)on3)nc3ccccc3c2=O)cc1` in this assay.
Result: inactive

Problem: Status in this test for `CC1CCN(Cc2c(C(=O)N/N=C/c3ccc(C(C)C)cc3)nnn2-c2nonc2N)CC1` ?
Result: inactive

Problem: I would be grateful if you could indicate the recorded call for `O=[N+]([O-])c1ccc(Cl)c(-c2ccc(/C=N/c3c(-c4ccco4)nc4ccccn34)o2)c1` .
Result: inactive

Problem: Just curious, what result did `FC(F)(F)c1nc2ccccc2n2c(-c3ccc(Cl)cc3)nnc12` get here?
Result: active

Problem: // param item: `CCCCNc1c(-c2ccc(-c3ccc(C(C)=O)cc3)c(OC)c2)nc2cc(C)ccn12` ; yields the recorded call
Result: inactive

Problem: Give the logged outcome of this assay for the following molecule: `Cc1ccc(Nc2nc(-c3c(C)nc4ccccn34)cs2)cc1`
Result: inactive

Problem: Record lookup: outcome of this test for `COc1ccccc1N=Cc1c(O)c2ccccc2oc1=O` ?
Result: active
